Target: monomeric alpha-synuclein (UniProt P37840 1-140)
Experiment: SPR, captured mAb
Attribute: kon
VALUE KIND: kon (M⁻¹ s⁻¹)

1) ACI-8032-6304F3-Ab1 (antibody, V domains shown, mouse hybridoma mAb; VH/VL only; also called 6304F3D12) VH: QVQLQQSGAELARPGASVKLSCKASGYTFTSYGVSWVKQRTGQGLEWIGEIYPRSGNTYYNEKFKGKATLTADKSSSTAYMELRSLTSEDSAVYFCASESYYGDYDWYFDVWGTGTTVTVSS VL: DVLMTQIPLSLPVSPGDQVSISCRSSQSIVHSNGNTYLEWYLQKPGQSPKPLIYKVSNRFSGVPDRFSGSGSGTDFTLKISRVEAEDLGVYYCFQGSHVPPTFGGGTKLEIK; 3.37e+06
2) ACI-8033-6403A4-Ab1 (antibody, V domains shown, mouse hybridoma mAb; VH/VL only; also called 6403A4A3) VH: EVQLVESGGGLVQPKGSLKLSCAASGFSFNTYAMNWVRQAPGKGLEWVARIRSKSNNYTTYYADSVKDRFTISRDDSESMLYLQMNNLKTEDTAMYYCVRTMDYWGQGTSVTVSS VL: QIVLTQSPAIMSASLGEEITLTCSASSSISYMHWYQQKSGTSPKLLIHSTFNLASGVPSRFSGSGSGTFYSLTISSVEAEDAADYYCHQWSSYYTFGGGTKLEIK; 457000
3) ACI-7079-3103D9-Ab1 (antibody, V domains shown, mouse hybridoma mAb; VH/VL only; also called 3103D9C9) VH: QVSLKESGPGILQPSQTLSLTCSFSGFSLSTFGMGVGWIRQPSGKGLDWLTHIWWDDDKYYNPGLKSRLTISKDTSKNQVFLEIANVDTADTATYYCARIGDYYGTRGYFDVWGTGTTVTVSS VL: DIVMTQSPSSLTMSLGQTVTMSCKSSQSLLNSSNQKNHLAWYQQRPGQSPKLLVYFASTRESGVPERFIGGGSGTDFTLTISNVQSEDLTDYFCQQHYSTPYTFGGGTKLEIK; 598000
